assay_protocol: qHTS Assay for Modulators of miRNAs and/or Inhibitors of miR-21; also: potency is read from the fitted curve at half-maximal effect; nearly all actives have a fitted effect of over 55% in size
condition_description: HeLa miR-21-FLuc reporter, luciferase luminescence, 48 h; actives lower the signal
In all, about 340,000 compounds went through this assay and about 3,300 (0.97%) were called active. Another 9% or so got no clear call; they are omitted. This is one part of the list.
Catalogue of Potency readings, one per entry.
endpoint_name: Potency

- N#CCCN1CCN(C(=S)c2ccc(-c3cccc(Cl)c3)o2)CC1: 13.1 µM (active)
- COCCN(CCOC)c1ncnc2c1cnn2-c1ccc(Cl)cc1: 7.36 µM (active)
- CCOc1ccc(C2=NNC(c3cccs3)=Nc3ccc(OC)cc32)cc1OCC: 18.5 µM (active)
- Clc1ccc(-c2cn3nc4c(nc3n2)CCCC4)cc1: 0.117 µM (active)
- CCCCN(c1ccccc1)c1ncnc2c1cnn2-c1ccc(Cl)cc1: 5.85 µM (active)
- COc1ccccc1N1CCN(C(=O)c2nc(-c3ccc(C)cc3)n3c2CCCCC3)CC1: 1.47 µM (active)
- COc1ccc(-c2c(C)nc3c(-c4ccsc4)cnn3c2N)cc1: 0.414 µM (active)
- COc1ccc(N=Cc2nc(-c3ccccc3)oc2OC(=O)c2ccccc2)cc1: 1.85 µM (active)
- O=C(/C=C/c1c(F)cccc1Cl)Nc1ncccn1: 3.29 µM (active)
- Clc1ccc(-n2ncc3c(NCc4ccccn4)ncnc32)cc1: 5.85 µM (active)
- COc1ccc(-c2c(C)nc3c(-c4ccccn4)cnn3c2N)cc1: 0.261 µM (active)

====

Listed compounds paired with reported Potency
assay_protocol: qHTS Assay for Modulators of miRNAs and/or Inhibitors of miR-21; also: potency is read from the fitted curve at half-maximal effect; nearly all actives have a fitted effect of over 55% in size
condition_description: HeLa miR-21-FLuc reporter, luciferase luminescence, 48 h; actives lower the signal
Hit rate of the full screen: of about 340,000 compounds, about 3,300 (0.97%) were called active. Not shown: some 9% with an inconclusive outcome. The list shows a part of the results.
endpoint_name: Potency

• COc1ccc(Br)c(-c2nnc(CS(=O)(=O)c3ccccc3)o2)c1 = 14.7 µM (active)
• Nc1nn2cc(-c3ccccc3)nc2c2ccccc12 = 0.521 µM (active)
• COc1ccc(N2C(=O)c3ccccc3NC2c2ccc(OC)c(Cn3nnc4ccccc43)c2)cc1 (centres undefined) = 5.21 µM (active)
• O=S(=O)(Cc1cc(-c2ccc(Cl)cc2)no1)c1ccccc1 = 4.65 µM (active)
• COc1ccc(C(=O)OCCc2ccc(O)cc2)cc1 = 6.56 µM (active)
• CCc1ccc(C2=NN(C(C)=O)C(c3ccco3)C2)cc1 (centres undefined) = 2.33 µM (active)
• Cc1ccc(/C=N/Nc2ncnc3nc[nH]c23)cc1 = 0.826 µM (active)
• O=C(NCCc1c[nH]c2ccccc12)c1cnc2sccn2c1=O = 3.29 µM (active)
• Cc1ccsc1C(=O)NCCc1c[nH]c2ccccc12 = 14.7 µM (active)
• CCc1ccc(/C=N/Nc2ncnc3nc[nH]c23)cc1 = 0.656 µM (active)
• Cc1ccc(NC(=O)/C(C#N)=C/c2ccc(C)o2)cc1 = 0.329 µM (active)
• NC(=O)c1sc2nc(-c3ccccc3)ccc2c1N = 1.85 µM (active)
• COc1ccc(C2Nc3ccccc3C(=O)N2c2ccc(Cl)cc2)cc1Cn1cc([N+](=O)[O-])cn1 (centres undefined) = 0.736 µM (active)
• Cc1ccc(Nc2nc(N)c([N+](=O)[O-])c(NCCO)n2)cc1C = 13.1 µM (active)
• Cc1ccc(NC(=O)Nc2ncnc3nc[nH]c23)cc1 = 2.93 µM (active)
• CC(=O)N1N=C(c2ccc(C)cc2)CC1c1ccco1 (centres undefined) = 16.5 µM (active)
• Nc1c(C(=O)N2CCCC2)sc2nc(-c3ccccc3)ccc12 = 3.69 µM (active)
• NC(=O)c1sc2nc(-c3cccnc3)ccc2c1N = 18.5 µM (active)
• Cc1ccccc1-c1nc(Cc2ccccc2)no1 = 14.7 µM (active)
• Cc1ccc(C(=O)NCCc2c[nH]c3ccccc23)s1 = 5.21 µM (active)
• CC1CC1c1ccc(/C=C(\C#N)C(=O)Nc2ccccc2Cl)o1 (centres undefined) = 14.7 µM (active)
• O=S(=O)(Cc1cc(-c2ccccc2Cl)no1)c1ccccc1 = 5.21 µM (active)
• O=C(Nc1ccc(N2CCCC2)cc1)c1cccc(Cl)c1 = 0.329 µM (active)
• CCn1c(C)cc(/C=C2/SC(=O)N(C(C)C(=O)OC)C2=O)c1C (centres undefined) = 2.07 µM (active)

====

Let's look at some compounds and their measured Potency.
assay_protocol: qHTS Assay for Modulators of miRNAs and/or Inhibitors of miR-21; also: potency is read from the fitted curve at half-maximal effect; nearly all actives have a fitted effect of over 55% in size
condition_description: HeLa miR-21-FLuc reporter, luciferase luminescence, 48 h; actives lower the signal
The whole screen tested about 340,000 compounds, of which about 3,300 (0.97%) were called active. About 9% were inconclusive and are not listed. This is one part of the list.
endpoint_name: Potency

* Cc1cn(CCC(=O)Nc2ccccc2N2CCOCC2)c2ccccc12 | 9.27 µM (active)
* NC(=O)c1ccccc1OCc1nc2ccccc2s1 | 1.47 µM (active)
* Cc1ccc(Nc2ncccc2C(N)=O)cc1 | 1.65 µM (active)
* COc1ccc(-c2cc(C(=O)N3CCCC3)no2)cc1OC | 5.85 µM (active)
* c1ccc(OCCOc2cccc3cccnc23)cc1 | 13.1 µM (active)
* COc1ccc(Cl)c2c1[nH]c1nc(SCc3ccccn3)nnc12 | 1.65 µM (active)
* Cc1ccc2cc3cc(C(=O)N4CCCCCC4)oc3nc2c1 | 0.261 µM (active)
* COc1ccc(/C=C/C(=O)N(C)C2CCCCC2)cc1Br | 9.27 µM (active)
* Cn1cccc1CC(=O)N/N=C/c1ccc(C(C)(C)C)cc1 | 10.4 µM (active)
* COc1ccc(-c2csc(N3CCSCC3)n2)cc1 | 10.4 µM (active)
* CCCOC(=O)c1c(N)sc(C(=O)OCC)c1C | 14.7 µM (active)
* Clc1ccc(-c2csc(N3CCOCC3)n2)cc1 | 3.29 µM (active)
* O=[N+]([O-])c1ccccc1N/N=C1\CC2CC=CC12 (centres undefined) | 16.5 µM (active)
* COc1ccc(-c2csc(NC(=O)COC(=O)c3ccco3)n2)cc1 | 3.69 µM (active)
* Cc1c(C(=O)OC(C)C)sc(N)c1C(=O)OC(C)C | 6.56 µM (active)
* C=CCN1C(=O)C(=O)N(Cc2nc3ccccc3s2)C1=O | 11.7 µM (active)
* Cc1ccc(NC(=S)NNC(=O)c2nn(C)c(C)c2Cl)cc1 | 5.85 µM (active)
* CCc1ccc(-c2csc(NC(=O)Oc3ccccc3)n2)cc1 | 3.69 µM (active)
* OCc1cc(Br)ccc1OCc1nc2ccccc2s1 | 1.65 µM (active)
* Cc1ccc(/C=C/C(=O)N2CCc3ccccc32)o1 | 2.93 µM (active)
* CC1(C)CC(=O)c2c(O)cc(OCc3ccc(Br)cc3)cc2O1 | 3.29 µM (active)
* CC1CCCCN1c1nc(-c2ccc(C(C)(C)C)cc2)nc2ccccc12 (centres undefined) | 0.585 µM (active)
* O=C(NCCc1cccs1)c1ccc(Cl)c(Cl)c1 | 2.07 µM (active)
* CN(N=Nc1ccc([N+](=O)[O-])cc1)c1ccccc1 | 4.14 µM (active)
* COc1ccc2cc3cc(C(=O)N4CCCC(C)C4)oc3nc2c1 (centres undefined) | 1.04 µM (active)
* Cc1ccc(C2=N/C(=C/N3CCOCC3)C(=O)O2)cc1 | 6.56 µM (active)
* CCN(c1ccccc1)c1ncnc2c1cnn2-c1ccccc1 | 7.36 µM (active)
* O=C(Nc1ccccc1F)c1ccc(OCc2ccccc2)cc1 | 5.21 µM (active)
* CCC(=O)Nc1ccc(-c2ccc(N3CCCCC3)nn2)cc1 | 4.14 µM (active)
* Cc1ccccc1-c1nnc(SCC(=O)N(C)c2ccccc2)o1 | 16.5 µM (active)
* CCN(CC)CCN(C(=O)c1ccc2ncsc2c1)c1nc2cc3c(cc2s1)OCO3 | 1.04 µM (active)
* O=C(O)c1ccccc1OCc1nc2ccccc2s1 | 3.29 µM (active)
* CCSc1nnc2ccc(-c3ccc(OC)c(OC)c3)nn12 | 14.7 µM (active)
* COC(=O)c1ccc(NN=Nc2ccc(C)cc2)cc1 | 2.07 µM (active)
* O=C(Nc1cccc2ccccc12)N1N=CCC1c1ccccc1 (centres undefined) | 6.56 µM (active)
* Cc1ccccc1-c1nnc(SCC(=O)N(C)C2CCCCC2)o1 | 14.7 µM (active)
* COc1ccc(-c2cc(C(=O)N3CCCCC3)no2)cc1OC | 7.36 µM (active)
* COc1ccc2cc3cc(C(=O)N4CCCCCC4)oc3nc2c1 | 0.414 µM (active)
* CC(C)(C)c1ccc(/C=N/NC(=O)C2CCCC2)cc1 | 16.5 µM (active)
* CN(C)c1ccc(-n2cc3c(=O)n(C)c(=O)n(C)c3c2)cc1 | 11.7 µM (active)
* S=C(c1ccc(-c2cccc(Cl)c2)o1)N1CCOCC1 | 3.69 µM (active)
* COc1cccc(OC)c1OCCCOc1cccc2cccnc12 | 7.36 µM (active)
* OC1CCCN(c2c3c(nc4cc(-c5cccc(F)c5)nn24)CCCC3)C1 (centres undefined) | 2.07 µM (active)
* CCC(C(=O)N1CCN(c2cccc(C)c2C)CC1)n1nc(C)c2sc3ccccc3c2c1=O (centres undefined) | 8.26 µM (active)
* CC1CCN(C(=S)NCCc2ccccc2)CC1 | 2.93 µM (active)
* CCOC(=O)c1c(N)sc(C(=O)OCCOC)c1C | 18.5 µM (active)
* O=C(/C=C/c1ccc(Cl)cc1Cl)N1CCc2ccccc21 | 0.521 µM (active)
* CC(NC(=O)c1ccccc1NC(=O)c1ccco1)C(=O)O (centres undefined) | 6.56 µM (active)
* CCc1ccc(-c2csc(NC(=O)COC(=O)CCc3nc4ccccc4s3)n2)cc1 | 2.07 µM (active)
